Protocol description: chemical genetic growth profiling, strain panel (AID 1159580);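 also: tested at 20 µM; growth read once vehicle control cultures reached saturation at 30 °C; lower values mean less growth of the strain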
Measurement setup: S. cerevisiae deletion strains, growth OD, locus YGL248W, strain PDE1, active compounds read low
Among all 5,500 compounds or so, about 2,000 (36%) were called active. Inconclusive results (about 18%) are left out. The list shows a part of the results.
Note to self: use rule met only for normalized growth readings below 1; a reading exactly at 1 still gets rule not met.

Example results:
O=C(Oc1cc(O)cc2c1C[C@@H](OC(=O)c1cc(O)c(O)c(O)c1)[C@@H](c1cc(O)c(O)c(O)c1)O2)c1cc(O)c(O)c(O)c1    rule met
C[C@]12CCC(=O)C=C1C=CC1C2CC[C@@]2(C)C1CC[C@@]21CCC(=O)O1 (some centres undefined)    rule met
COc1ccc(C(=O)O)cc1OC    rule not met

### Prompt Is the reported normalized growth for CN1C2CCC1CC(OC(c1ccccc1)c1ccccc1)C2 (centres undefined) strictly below 1?
### Response rule met

### Prompt Same thing, different compound: CCCCCCCCCCC[C@@H](C[C@H]1OC(=O)[C@H]1CCCCCC)OC(=O)[C@@H](CC(C)C)NC=O
### Response rule not met

### Prompt Try this compound too: O=C(O[C@@H]1Cc2c(O)cc(O)cc2O[C@@H]1c1cc(O)c(O)c(O)c1)c1cc(O)c(O)c(O)c1
### Response rule met

src = PubChem BioAssay AID1159580
